- Tested on: Digitaria ciliaris
- PROTOCOL DESCRIPTION: Test Example 7: herbicidal effect test by soil application in upland field (low dose)
- Format: in vivo
- TEST CONTEXT: Digitaria ciliaris, 7.5 g per 10 ares, sprayed one day after sowing, 14 days after application, read-out: weed inhibition rate
REPORTED ENDPOINT: inhibition at 75 g/ha

compound=CC(C)[C@]12C[C@@H](OCc3ccccc3Cl)[C@](C)(CC1=O)O2 tested_on="Digitaria ciliaris" observed_measurement="≥ 80%"
compound=CC(C)[C@]12C[C@@H](OCc3c(F)cccc3F)[C@](C)(C[C@@H]1F)O2 tested_on="Digitaria ciliaris" observed_measurement="≥ 80%"
compound=CC(C)[C@]12C[C@@H](OCc3cccc(F)c3)[C@](C)(C[C@@H]1Br)O2 tested_on="Digitaria ciliaris" observed_measurement="≥ 80%"
compound="CC(C)C12CC(OCc3ccccc3C#N)C(C)(CC1I)O2 (stereo not drawn)" tested_on="Digitaria ciliaris" observed_measurement="≥ 80%"

Challenge: Given `CCCO[C@H]1C[C@]2(C)O[C@@]1(C(C)C)C[C@H]2OCc1ccccc1F` , state its recorded inhibition at 75 g/ha.
Response given: ≥ 80%

Challenge: Given `CC(C)[C@]12C[C@@H](OCc3ccccc3I)[C@](C)(C[C@@H]1I)O2` , state its recorded inhibition at 75 g/ha.
Response given: ≥ 80%

Challenge: Given `CC(C)[C@]12C[C@@H](OCc3cccc(F)c3F)[C@](C)(CC1=O)O2` , state its recorded inhibition at 75 g/ha.
Response given: ≥ 80%

Challenge: Given `CC#CCO[C@@H]1C[C@]2(C(C)C)O[C@@]1(C)C[C@@H]2Cl` , state its recorded inhibition at 75 g/ha.
Response given: ≥ 80%

Challenge: Given `CC(C)[C@]12C[C@@H](OCc3ccccc3Cl)[C@](C)(C[C@@H]1I)O2` , state its recorded inhibition at 75 g/ha.
Response given: ≥ 80%
